LogP by entry:
assay setup: pH 2.7
Marks after values point to notes of the source that are not given here.

compound	LogP
CC(C)(C)C(O)(Cc1cc(Cl)cc(Cl)n1)Cn1cncn1 (racemic)	2.86^[a]
CC(C)(C)C(O)(Cc1ccc(Cl)c(Cl)n1)Cn1cncn1 (racemic)	2.78^[a]
OC(Cc1cccnc1Cl)(Cn1ncnc1S)C1(F)CC1 (stereo not shown)	1.76^[a]
CCC(C)(C)C(O)(Cc1ccncc1Cl)Cn1ncnc1S (stereo not shown)	2.50^[a]
OC(Cc1ccncc1Cl)(Cn1cncn1)C1(c2ccccc2)CC1 (stereo not shown)	2.23^[a]
CC(C)(C)C(O)(Cc1ccnc(Cl)c1F)Cn1cncn1 (racemic)	2.16^[a]
CC(C)(C)C(O)(Cc1cc(Cl)ncc1F)Cn1cncn1 (racemic)	2.16^[a]
CC(C)(C)C(O)(Cc1cc(Cl)nc(Cl)c1)Cn1cncn1 (racemic)	2.64^[a]
OC(Cc1nccnc1I)(Cn1cncn1)C1(Cl)CC1 (racemic)	2.07^[a]
CC(C)(C)C(O)(Cc1cc(F)ncc1Cl)Cn1cncn1 (racemic)	2.39^[a]
Cc1cccc(CC(O)(Cn2cncn2)C(C)(C)C)n1 (racemic)	0.63^[a]
CC(C)(C)C(O)(Cc1cc(Cl)ccn1)Cn1cncn1 (racemic)	1.87^[a]
OC(Cc1ccncc1Cl)(CC1CC1)Cn1cncn1 (racemic)	1.43^[a]
OC(Cc1cccnc1Cl)(Cn1ncnc1S)C1(Cl)CC1 (stereo not shown)	2.15^[a]
OC(Cc1ccncc1Cl)(Cn1ncnc1S)C1(F)CC1 (stereo not shown)	1.63^[a]
COc1nccnc1CC(O)(Cn1cncn1)C1(Cl)CC1 (stereo not shown)	1.88^[a]
CCOC(=O)OC(Cc1cccnc1Cl)(Cn1cncn1)C(C)(C)C (racemic)	2.67^[a]
CC(C)(C)C(O)(Cc1ccc(Cl)nc1)Cn1cncn1 (stereo not shown)	1.98^[a]
CC(C)(C)C(O)(Cc1ccnc2ccccc12)Cn1ncnc1S (stereo not shown)	1.59^[a]
OC(Cc1ccc(F)cc1)(Cc1ccncc1Cl)Cn1cncn1 (stereo not shown)	1.93^[a]
OC(Cc1ccnc(Cl)c1)(Cn1cncn1)c1ccc(Cl)nc1 (racemic)	1.38^[a]
OC(Cc1cc(Cl)nnc1Cl)(Cn1cncn1)C1(Cl)CC1 (racemic)	1.92^[a]
CC(C)(C)C(O)(Cc1ccncc1F)Cn1cncn1 (racemic)	1.41^[a]
CC(C)(C)C(O)(Cc1cccnc1Cl)Cn1ncnc1S (stereo not shown)	2.31^[a]
CCC(C)(C)C(O)(Cc1ccncc1Cl)Cn1cncn1 (stereo not shown)	2.13^[a]
CC(C)(C)C(O)(Cc1ccncc1Cl)Cn1ncnc1S (stereo not shown)	2.14^[a]
OC(Cc1ccnc(Cl)c1Cl)(Cn1cncn1)C1(Cl)CC1 (stereo not shown)	2.39^[a]
CCC(C)(C)C(O)(Cc1ccnc(Cl)c1)Cn1cncn1 (racemic)	2.27^[a]
OC(Cc1ccncc1Cl)(Cn1cncn1)C1CCC1 (stereo not shown)	1.46^[a]
Cc1cc(C(O)(Cc2ccncc2Cl)Cn2cncn2)nn1C (stereo not shown)	0.84^[a]
OC(Cc1ccnc2ccccc12)(Cn1ncnc1S)C1(Cl)CC1 (stereo not shown)	1.37^[a]
OC(Cc1cc(Cl)ncc1F)(Cn1cncn1)c1ccc(Cl)nc1 (racemic)	1.60^[a]
OC(Cc1ncc(Cl)cc1Cl)(Cn1cncn1)C1(Cl)CC1 (racemic)	2.88^[a]
CC(CF)(CF)C(O)(Cc1ccnc(Cl)c1F)Cn1cncn1 (racemic)	1.87^[a]
OC(Cc1ccc(Cl)cn1)(Cn1cncn1)C1(Cl)CC1 (stereo not shown)	2.23^[a]
OC(CCc1ccccc1Cl)(Cc1ccncc1Cl)Cn1cncn1 (stereo not shown)	2.29^[a]
CC(C)(C)C(O)(Cc1cnccn1)Cn1cncn1 (racemic)	1.39^[a]
OC(Cc1ncnc(Cl)c1Cl)(Cn1cncn1)C1(Cl)CC1 (racemic)	2.28^[a]
OC(Cc1ccccc1F)(Cc1ccnc(Cl)c1F)Cn1cncn1 (stereo not shown)	1.73^[a]
COC(C)(C)C(O)(Cc1ccncc1Cl)Cn1cncn1 (racemic)	1.48^[a]
